- Test system: SNB-75
- test summary: NCI tumour cell line growth inhibition, 48 h
Activity calls are given as the source filed them. Cut-off read from the data, not from the text of the source: active = GI50 up to about 1.1 µM and inactive = higher.
# valid calls are active, inactive; nothing else

Reference set (5 entries):
{"compound": "CCOC(=O)/C(=C/c1cccc(Cl)c1)N(CC)CC", "discrete label": "inactive"}
{"compound": "N#CC(NCc1cccc(CNC(C#N)c2ccccc2)c1)c1ccccc1 (configuration not stated)", "discrete label": "inactive"}
{"compound": "CN(C)S(=O)(=O)c1ccc2c(c1)/C(=C1/Nc3ccccc3C1=O)C(=O)N2", "discrete label": "active"}
{"compound": "O=C(Nc1ccc2ccccc2c1)c1cc2cc(CCl)ccc2oc1=O", "discrete label": "inactive"}
{"compound": "CC(C)Oc1c(C2(c3ccccc3O)SCCCS2)c(=O)c1=O", "discrete label": "inactive"}

stdin: Which outcome was entered for the compound O=C(NO)C(=O)Nc1cc(Cl)ccc1Cl in this test?
stdout: inactive

stdin: Which outcome was entered for the compound CC(c1cccc2ccccc12)/[N+]([O-])=C/c1ccccc1 (configuration not stated) in this test?
stdout: inactive

* * *

- Test system: SF-539
- test summary: NCI tumour cell line growth inhibition, 48 h
The source made the active and inactive calls. No stated cut-off is given here; in the data, active = GI50 up to about 1.1 µM and inactive = higher.
measured metric: GI50

Some solved entries appear below for comparison.
{"compound": "C=C(CCCCC)CN1CCCC1C(C)=O (configuration not stated)", "GI50": "35.6 µM (inactive)"}
{"compound": "O=c1n(/N=C/c2ccccc2)c(=O)n2n1C1C=CC2CC1", "GI50": "> 100 µM (inactive)"}
{"compound": "CC(=O)N(C(C)=O)c1ncc(-n2nc(-c3ccccc3)cc2-c2ccccc2)c(-c2ccccc2)n1", "GI50": "> 10 µM (inactive)"}
{"compound": "O=C(CCc1ccc(O)c(O)c1)NCCc1ccccc1", "GI50": "> 47.8 µM (inactive)"}
{"compound": "CC(CN1NC12CCCC2)N1NC12CCCC2 (configuration not stated)", "GI50": "> 100 µM (inactive)"}

stdin: Can you share its GI50? I mean this compound: N#C/C(C(=O)Nc1ccccc1)=C(/N)N1CCCCC1
stdout: > 100 µM (inactive)

stdin: Can you share its GI50? I mean this compound: N#C/N=C(/N)NCN/C(N)=N\C#N
stdout: > 100 µM (inactive)

stdin: Can you share its GI50? I mean this compound: CN1COc2c(n(C)c(=O)[nH]c2=O)C1
stdout: > 100 µM (inactive)

* * *

- System: TK-10
- test summary: NCI tumour cell line growth inhibition, 48 h
The source made the active and inactive calls. Cut-off read from the data, not from the text of the source: active = GI50 up to about 1.1 µM and inactive = higher.
// reported GI50 per item

Some solved entries appear below for comparison.
{"compound": "COc1ccc(/C=C2\\C(=O)N(C(=O)Cc3ccccc3)N=C2C)cc1OC", "GI50": "> 100 µM (inactive)"}
{"compound": "N#CCCN(c1ccc(-c2nnc(NC(=O)CNNC(=O)CC(=O)Nc3ccccc3)s2)cc1)S(=O)(=O)c1ccccc1", "GI50": "> 100 µM (inactive)"}

stdin: Can you share its GI50? I mean this compound: O=[N+]([O-])c1ccc(C(O)/C(=N/O)c2nc3ccc(Cl)cc3nc2O)cc1 (stereo unspecified)
stdout: > 100 µM (inactive)

* * *

- Test system: EKVX
- test summary: NCI tumour cell line growth inhibition, 48 h
The source made the active and inactive calls. Cut-off read from the data, not from the text of the source: active = GI50 up to about 1.1 µM and inactive = higher.
# valid calls are t = active, f = inactive; nothing else

{"compound": "C[N+](C)(Cc1ccc(NC(=O)CCCC(=O)ON2C(=O)CCC2=O)cc1)c1ccccc1", "discrete label": "t"}
{"compound": "COc1ccc2c(c1)CCc1cc(OC)ccc1/[N+]([O-])=[N+]\\2[O-]", "discrete label": "f"}

stdin: Which outcome was entered for the compound C[C@H](C/C=C/C(C)(C)O)[C@H]1CC[C@@]2(C)[C@@H]3CC[C@H]4C(C)(C)[C@@H](O)CC[C@@]45C[C@@]35CC[C@]12C in this test?
stdout: f

stdin: Which outcome was entered for the compound O=C(N/N=C/c1ccc(Cl)cc1)c1c(Cl)c(Cl)c(Cl)c(Cl)c1-c1nc2ccccc2[nH]1 in this test?
stdout: f

stdin: Which outcome was entered for the compound COc1ccc2[nH]c3ccc4cc[n+](CCN5CCC(C6CCN(CC[n+]7ccc8ccc9[nH]c%10ccc(OC)cc%10c9c8c7)CC6)CC5)cc4c3c2c1 in this test?
stdout: f

* * *

- Test system: SF-268
- test summary: NCI tumour cell line growth inhibition, 48 h
Activity calls are given as the source filed them. Rule as the data show it: active = GI50 up to about 1.1 µM and inactive = higher.
# valid calls are true for active, false for inactive; nothing else

{"molecule": "O=C1CCCCCCCCCCC1CN1CCCC1 (stereo not drawn)", "assay target": "SF-268", "discrete label": "false"}

We now examine a further molecule.
stdin: Which outcome was entered for the molecule CN(C)c1ccc(/N=C2/NC(=N\c3ccccc3)/C(=N/c3ccccc3)S2)cc1 in this test?
stdout: false

* * *

- Tested on: 786-0
- test summary: NCI tumour cell line growth inhibition, 48 h
The source made the active and inactive calls. No stated cut-off is given here; in the data, active = GI50 up to about 1.1 µM and inactive = higher.
measured metric: GI50

Some solved entries appear below for comparison.
{"molecule": "CCCOc1cc2c(cc1O)CC[C@@H]1[C@@H]2CC[C@]2(C)[C@@H](O)CC[C@@H]12", "result": "3.63 µM (inactive)"}
{"molecule": "COC(=O)[C@@H]1Cc2c([nH]c3ccccc23)[C@H](c2ccccc2)N1", "result": "37.2 µM (inactive)"}
{"molecule": "Nc1ncn([C@@H]2C=C(CO)C(O)C2O)c(=O)n1 (some centres undefined)", "result": "55.5 µM (inactive)"}
{"molecule": "CCOC(=O)C(NC(=O)Nc1ccc(Cl)cc1)(OC)C(F)(F)F (centres undefined)", "result": "13.8 µM (inactive)"}

stdin: Request: GI50, test system 786-0, entry CC(C)(CN1C(=O)C(Cl)=C(Cl)C1=O)CN1C(=O)C(Cl)=C(Cl)C1=O
stdout: 11.7 µM (inactive)

stdin: Request: GI50, test system 786-0, entry CSc1nc(O)c(C#N)c(-c2ccccc2)n1
stdout: > 100 µM (inactive)

stdin: Request: GI50, test system 786-0, entry CO[C@@H]1[C@@H](OC2OC(C)C(OC3CC(C)(O)C(OC(=O)CC(C)C)C(C)O3)C(N(C)C)C2O)[C@@H](CC=O)C[C@@H](C)C(=O)/C=C/C2O[C@H]2C[C@@H](C)OC(=O)C[C@H]1OC(C)=O (some centres undefined)
stdout: 20 µM (inactive)

stdin: Request: GI50, test system 786-0, entry Cn1c(-c2cccs2)cc(-c2ccsc2)c1-c1ccsc1
stdout: > 100 µM (inactive)

stdin: Request: GI50, test system 786-0, entry COC(=O)C1CCC(=S)N1C(=O)c1ccccc1 (centres undefined)
stdout: > 100 µM (inactive)

* * *

// reported GI50 per item
- Test system: UO-31
- test summary: NCI tumour cell line growth inhibition, 48 h
Active and inactive are the calls of the source. No stated cut-off is given here; in the data, active = GI50 up to about 1.1 µM and inactive = higher.

{"compound": "Cn1cc(C(=O)c2ccccc2)cc(C(=O)c2ccccc2)c1=O", "GI50": "> 100 µM (inactive)"}
{"compound": "N[C@@H]1CCN(c2c(F)cc3c(=O)c(C(=O)O)cn4c3c2Oc2c-4ccc3c2ccc2ccccc23)C1", "GI50": "3.24 µM (inactive)"}
{"compound": "CC1CNC(NS(=O)(=O)c2cc(C(=O)Nc3ccc(F)cc3)c(Cl)cc2S)=NN1 (stereo not given)", "GI50": "> 100 µM (inactive)"}
{"compound": "CC(=O)OCC1OC(n2cc(F)c(=O)[nH]c2=O)C(NC(=O)OCc2ccccc2)C(OC(C)=O)C1OC(C)=O (stereo not given)", "GI50": "> 100 µM (inactive)"}

API: the following record is the query input.
stdin: Can you share its GI50? I mean this compound: Cc1nc(C)c(N2CCN(C#N)CC2)c(O)n1
stdout: > 100 µM (inactive)

* * *

- Tested on: SF-268
- test summary: NCI tumour cell line growth inhibition, 48 h
The source made the active and inactive calls. Cut-off read from the data, not from the text of the source: active = GI50 up to about 1.1 µM and inactive = higher.
measured metric: GI50

Some solved entries appear below for comparison.
{"compound": "COc1cccc(C2CC23C(=O)NC(=O)NC3=O)c1 (stereo not given)", "GI50": "> 100 µM (inactive)"}
{"compound": "C=CCC1(O)c2ccccc2C(=O)c2c(O)ccc(O)c21 (stereo not given)", "GI50": "10.5 µM (inactive)"}
{"compound": "CCN(CC)c1ccc2c(c1)Oc1ccc(N(C(C)=O)c3ccccc3)cc1C21OC(=O)c2ccccc21 (stereo not given)", "GI50": "> 100 µM (inactive)"}
{"compound": "CC(C)Oc1c(C2(c3ccccc3O)SCCCS2)c(=O)c1=O", "GI50": "> 100 µM (inactive)"}
{"compound": "CCOC(=O)C(=CNc1ccc(S(N)(=O)=O)cc1)C(=O)OCC", "GI50": "> 100 µM (inactive)"}

stdin: Can you share its GI50? I mean this compound: Cc1ccc(-c2c(C#N)c(-c3ccc([N+](=O)[O-])cc3)c(C#N)c(=O)n2NS(=O)(=O)c2ccccc2)cc1
stdout: 49 µM (inactive)

stdin: Can you share its GI50? I mean this compound: CCCCCC/C(CC(=O)CCC(=O)NCCc1ccccc1)=N\NC(=O)c1ccc2ccccc2c1O
stdout: 22.6 µM (inactive)
